Molecular target: T1, human IL-12 (human, UniProt P29459 23-219; P29460 23-328)
T1 construct: recombinant human IL-12 heterodimer (p35/p40, disulfide-linked); also called hIL-12; rhIL-12
T1 sequence (looked up) 1: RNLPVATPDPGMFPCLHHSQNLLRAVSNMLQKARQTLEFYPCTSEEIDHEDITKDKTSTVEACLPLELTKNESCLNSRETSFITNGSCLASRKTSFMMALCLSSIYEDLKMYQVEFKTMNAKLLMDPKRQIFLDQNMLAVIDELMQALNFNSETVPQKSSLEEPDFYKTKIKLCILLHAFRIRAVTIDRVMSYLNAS
T1 sequence (looked up) 2: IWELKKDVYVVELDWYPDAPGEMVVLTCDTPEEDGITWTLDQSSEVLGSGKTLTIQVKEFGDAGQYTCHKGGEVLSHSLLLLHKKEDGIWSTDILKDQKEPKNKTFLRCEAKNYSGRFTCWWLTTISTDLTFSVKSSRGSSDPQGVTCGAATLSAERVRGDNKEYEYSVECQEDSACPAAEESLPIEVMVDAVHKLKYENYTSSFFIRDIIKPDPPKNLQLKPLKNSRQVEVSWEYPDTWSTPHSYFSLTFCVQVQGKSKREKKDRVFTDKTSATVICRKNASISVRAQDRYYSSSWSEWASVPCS
Assay: SPR (BIAcore), IL-12 chip
For each entry below, report its koff value.
Give bare numbers, in s⁻¹.

Example entries and their recorded answers appear below.
103-8 (scFv, V domains shown, scFv) VH: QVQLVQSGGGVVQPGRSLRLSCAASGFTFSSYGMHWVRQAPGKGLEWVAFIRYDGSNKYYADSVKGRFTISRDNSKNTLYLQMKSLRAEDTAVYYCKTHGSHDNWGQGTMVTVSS VL: SYVLTQPPSVSGTPGQRVTISCSGGRSNIGSNTVKWYQQLPGTAPKLLIYGNDQRPSGVPDRFSGSKSGTSASLAITGVQAEDEADYYCQTYDKGFTGSSVFGTGTKVTVL; 0.00033
170-15 (scFv, V domains shown, scFv) VH: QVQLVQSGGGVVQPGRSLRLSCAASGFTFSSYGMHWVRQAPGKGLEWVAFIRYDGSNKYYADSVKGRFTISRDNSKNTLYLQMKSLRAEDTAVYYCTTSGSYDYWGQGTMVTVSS VL: SYVLTQPPSVSGTPGQRVTISCSGGRSNIGSNTVKWYQQLPGTAPKLLIYGNDQRPSGVPDRFSGSKSGTSASLAITGVQAEDEADYYCQSYDRGLTGYRLFGTGTKVTVL; 0.00443

We now examine a further binder.
Entry 101-4 (scFv, V domains shown, scFv) VH: QVQLVQSGGGVVQPGRSLRLSCAASGFTFSSYGMHWVRQAPGKGLEWVAFIRYDGSNKYYADSVKGRFTISRDNSKNTLYLQMKSLRAEDTAVYYCTTSGSIDYWGQGTMVTVSS VL: SYVLTQPPSVSGTPGQRVTISCSGGRSNIGSNTVKWYQQLPGTAPKLLIYGNDQRPSGVPDRFSGSKSGTSASLAITGVQAEDEADYYCQSYDSSLTGSRVFGTGTKVTVL — recorded koff = 0.00976
